Where do these numbers come from? They come from PubChem BioAssay (NCI).

system: SNB-19 CNS; assay: NCI tumour cell line growth inhibition, 48 h
Property label: TGI

input: Let me know recorded TGI for CC(=O)O[C@H]1CC[C@@]2(C)C(=CC[C@H]3[C@@H]4C[C@H](N5CCOCC5)[C@H](OC(C)=O)[C@@]4(C)CC[C@@H]32)C1 , thanks.
output: > 100 µM

input: Specify reported TGI for the compound shown: CCCCON(OC(=O)c1ccc2ccc3cccc4ccc1c2c34)C(C)=O
output: > 100 µM

input: Recall and state the measured TGI for O=c1oc2ccc([N+](=O)[O-])cc2c(Nc2ccc3c(c2)Oc2ccccc2O3)c1[N+](=O)[O-] .
output: > 100 µM

input: Provide one value: measured TGI of CC1=NNC(=O)C1C(CC(=O)c1c[nH]c2ccccc12)C(=O)O (centres undefined)
output: > 100 µM

input: Using the record for CCN(CC)c1ccc(N=Nc2ccc(-c3nc4ccc[n+](C)c4s3)cc2)cc1 , state its measured TGI.
output: 25.1 µM

input: Look up and state reported TGI for Nc1ccc(S(=O)(=O)Nc2nccs2)cc1
output: > 100 µM

input: Tell me its TGI given CC(=O)O[C@]12CCCCCC1C1(O)C(O)CCCC[C@H]12 (some centres undefined) as the entry.
output: > 100 µM

input: Please list TGI recorded for the compound CCCCN=C(c1ccccc1)N1CCOCC1
output: > 100 µM

input: Recall and state the measured TGI for Cc1nc2sc3ccccc3n2c(=O)c1N=Nc1ccc(Cl)cc1 .
output: > 100 µM

input: Output measured TGI for this item: NC(=O)NCc1c(C(N)=O)ncn1Cc1ccccc1
output: > 100 µM

input: Provide one value: measured TGI of Cn1c2ccccc2c(=O)c2ccc(Cl)cc21
output: 4 µM

input: Please look at this compound and report its TGI: Nc1ccc(-c2nc3ccc(Cc4ccc5nc(-c6ccc(N)cc6)[nH]c5c4)cc3[nH]2)cc1
output: 18.2 µM

input: Name the recorded TGI of the compound listed here: C/C(N=NC(=S)N(C)C)=C1\C=CC=CN1O
output: > 100 µM

input: Note TGI for the compound shown: O=C(c1ccccc1)C1OC12C(=O)Nc1ccccc12 (centres undefined)
output: > 100 µM

input: Complete the entry with TGI for [N-]=[N+]=NC1=C(c2ccccn2)C(=O)c2cccc3cccc1c23
output: > 100 µM

input: Supply reported TGI belonging to this compound: COc1ccc(C2OC(c3ccncc3)=NN2C)cc1OC (centres undefined)
output: > 100 µM

input: Check the records and state TGI for O=C1CCC(O)=C1N=Nc1ccccc1
output: > 100 µM

input: Identify measured TGI corresponding to Nc1ccc(C(=O)N2CCC[C@H]2CO)c(N)c1
output: > 100 µM

input: Supply measured TGI of NNC(=O)CSc1nc2ccccc2c(=O)n1N in your reply.
output: 44.6 µM

input: Annotate the compound N#Cc1c(Cl)cc(Cl)n2c1nc1ccccc12 with its measured TGI.
output: 50.7 µM

input: Give the measured TGI for CC(C)CC(O)P(=O)(O)O (centres undefined)
output: > 100 µM

input: // Input: O=C1Nc2ccc(F)cc2/C1=C/c1ccc[nH]1 . Output its TGI only.
output: > 25 µM

input: Name the recorded TGI of the item S=C(Nc1ccc2c(c1)oc1ccccc12)c1cccnc1 in your answer.
output: 77.7 µM

input: Note TGI for the compound shown: COc1cccc(C#Cc2ccccc2C#CCCCCO)c1
output: 35.5 µM
